molecular target: 3-pTza peptide (Biotin-AminocaproicAcid-A.G.A.G.3-pTza.A.G.A.G); assay: BLI; biotinylated peptide captured on streptavidin biosensors at 20 nM; IgG in solution at 20-200 nM; Octet HTX; 1x HBS-T, 1% BSA
// reported kon per item
Provide only the numeric value, understood in M⁻¹ s⁻¹.

Study these solved cases before continuing.
BINDER: hSC44.3 IgG (antibody, V domains shown) VH: EVQLVESGGGLVQPGGSLRLSCTASGFSIDSYGFSWVRQAPGKGLEHIGYLTAGGRAFYASWAKSRSTITRNTNENTVTLKMNSLRAEDTAVYYCAKIGSGSPVAIWG VL: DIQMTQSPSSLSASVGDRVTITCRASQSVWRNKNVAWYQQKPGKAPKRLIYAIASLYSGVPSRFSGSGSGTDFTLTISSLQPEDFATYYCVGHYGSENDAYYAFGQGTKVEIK
kon, M⁻¹ s⁻¹: 40700
//
BINDER: hSC44.31 IgG (antibody, V domains shown) VH: EVQLVESGGGLVQPGGSLRLSCTASGFSIDSYGFSWVRQAPGKGLEHIGYLTAGGRAFYASWAKSRSTITRNTNENTVTLKMNSLRAEDTAVYYCAKLGTGTPFAIWGQGTLVTVSS VL: DIQMTQSPSSLSASVGDRVTITCRASQSVWRNKYVAWYQQKPGKAPKRLIYAIASLYSGVPSRFSGSGSGTDFTLTISSLQPEDFATYYCVGHYGSENDAYYAFGQGTKVEIK
kon, M⁻¹ s⁻¹: 14700

Okay, next one:
Can you look up the measured kon of hSC44.1 IgG (antibody, V domains shown) VH: EVQLVESGGGLVQPGGSLRLSCTASGFSIDSYGFSWVRQAPGKGLEHIGYLTAGGRAFYASWAKSRSTITRNTNENTVTLKMNSLRAEDTAVYYCAKLGTGSPIAIWGQGTLVTVSS VL: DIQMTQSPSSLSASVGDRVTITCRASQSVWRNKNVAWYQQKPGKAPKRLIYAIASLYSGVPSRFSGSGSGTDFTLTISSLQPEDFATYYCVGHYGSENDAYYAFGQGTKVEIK for me? 141000
